Form field: Peptide-ratio 18-23/2-7 (one value per entry).
# tested-target: T1, BSA-conjugated Aβ heptapeptide VFFAEDC (C-terminal Cys coupled to NSMP-activated BSA);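 note: ELISA of antibody at 10 or 2 µg/ml binding plate-coated BSA–peptide conjugates, detected with HRP anti-human Ig and TMB colour, mock-treated BSA without peptide as negative control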
# T1 construct: also called Peptide 18-23
# T1 peptide: VFFAEDC
# experiment-summary: ELISA
Form field (numeric): enter value without unit.

Some solved cases for reference:
1. MS-Roche #7.12 Fab (Fab, V domains shown) VH: QVQLVESGGGLVQPGGSLRLSCAASGFTFSSYGMSWVRQAPGKGLEWVSNISGSGSSTYYADSVKGRFTISRDNSKNTLYLQMNSLRAEDTAVYYCARGKGNTHKPYGYVRYFDVWGQGTLVTVSS VL: DIVLTQSPATLSLSPGERATLSCRASQYVSSPYLAWYQQKPGQAPRLLISGSSNRATGVPARFSGSGSGTDFTLTISSLEPEDFAVYYCLQLYNIPNTFGQGTKVEIKR = 0.21
2. MS-Roche #7.9.H2 Fab (Fab, V domains shown, assembled) VH: QVQLVESGGGLVQPGGSLRLSCAASGFTFSSYAMSWVRQAPGKGLEWVSAINADGNRKYYADSVKGRFTISRDNSKNTLYLQMNSLRAEDTAVYYCARGKGNTHKPYGYVRYFDVWGQGTLVTVSS VL: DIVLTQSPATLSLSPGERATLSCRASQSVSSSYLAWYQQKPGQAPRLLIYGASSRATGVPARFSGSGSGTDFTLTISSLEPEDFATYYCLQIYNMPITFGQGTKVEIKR = 0.16

# evaluate next
Ask: Let me know recorded Peptide-ratio 18-23/2-7 for MS-Roche #7.2.H2 Fab (Fab, V domains shown) VH: QVQLVESGGGLVQPGGSLRLSCAASGFTFSSYAMSWVRQAPGKGLEWVSAINGTGMKKYYADSVKGRFTISRDNSKNTLYLQMNSLRAEDTAVYYCARGKGNTHKPYGYVRYFDVWGQGTLVTVSS VL: DIVLTQSPATLSLSPGERATLSCRASQSVSSSYLAWYQQKPGQAPRLLIYGASSRATGVPARFSGSGSGTDFTLTISSLEPEDFATYYCQQIYSFPHTFGQGTKVEIKR , thanks.
Reply: 0.63
